// data source = patent US9334286B2

Target: full length MPS1 (Homo sapiens (Human), UniProt P33981)
Sequence (P33981 whole entry): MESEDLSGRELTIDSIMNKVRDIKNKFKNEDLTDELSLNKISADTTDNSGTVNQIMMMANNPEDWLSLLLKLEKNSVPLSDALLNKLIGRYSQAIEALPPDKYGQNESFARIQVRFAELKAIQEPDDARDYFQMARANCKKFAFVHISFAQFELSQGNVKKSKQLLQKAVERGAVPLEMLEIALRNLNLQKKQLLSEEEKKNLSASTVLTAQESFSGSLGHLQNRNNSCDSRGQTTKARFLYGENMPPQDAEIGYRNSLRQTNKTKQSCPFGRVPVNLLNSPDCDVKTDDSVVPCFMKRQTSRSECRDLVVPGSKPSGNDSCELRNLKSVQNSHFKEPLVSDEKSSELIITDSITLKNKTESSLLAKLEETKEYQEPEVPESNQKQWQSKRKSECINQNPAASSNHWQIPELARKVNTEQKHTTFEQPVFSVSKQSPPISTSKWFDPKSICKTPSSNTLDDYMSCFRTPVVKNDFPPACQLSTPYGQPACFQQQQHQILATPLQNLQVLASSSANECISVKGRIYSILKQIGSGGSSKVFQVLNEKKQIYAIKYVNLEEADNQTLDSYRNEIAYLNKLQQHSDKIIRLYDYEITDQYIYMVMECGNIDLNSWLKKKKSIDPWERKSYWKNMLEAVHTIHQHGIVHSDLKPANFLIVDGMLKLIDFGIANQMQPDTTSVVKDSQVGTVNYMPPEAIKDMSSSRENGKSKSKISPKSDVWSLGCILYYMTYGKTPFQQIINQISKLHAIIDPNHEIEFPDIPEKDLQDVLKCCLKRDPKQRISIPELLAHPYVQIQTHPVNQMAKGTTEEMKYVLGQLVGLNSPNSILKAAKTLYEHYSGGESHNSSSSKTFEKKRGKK
Assay: Measurement of inhibition of MPS1 kinase (Caliper EZ reader, fluorescent labelled peptide H236)
Assay type: biochemical
Settings: full length MPS1 12.5 nM or 3 nM, peptide H236 5 μM, ATP 10 μM, 60 min at room temperature
pIC50: −log10 of the molar value.
quantity: pIC50

molecule	pIC50
COc1cc(-c2cnc(C)n2C)ccc1Nc1cc2nc(-c3cnn(CC4(O)CCC4)c3)ccc2cn1 [Example 106]	9.00
CC(C)(O)Cn1cc(-c2ccc3cnc(Nc4ccc(S(C)(=O)=O)cc4Cl)cc3c2)cn1 [Example 59]	8.40

[I] COc1cc(C(=O)N2CC3(CCOC3)C2)ccc1Nc1cc2cc(-c3cnn(CC(C)(C)O)c3)ccc2cn1 [Example 95]
[II] COc1cc(C(=O)N2CCC(C#N)CC2)ccc1Nc1cc2cc(-c3cnn(CC(C)(C)O)c3)ccc2cn1 [Example 94]
[III] COc1cc(-c2cnc(C)n2C)ccc1Nc1cc2cc(C3CC3)ccc2cn1 [Example 18]
[IV] COc1cc(C(=O)N2CC(OC)C2)ccc1Nc1cc2cc(-c3cnn(CC(C)(C)O)n3)ccc2cn1 [Example 97]
[V] CCC(O)Cn1cc(-c2ccc3cnc(Nc4ccc(C(=O)N5CC(OC)C5)cc4OC)cc3c2)cn1 (racemic) [Example 71]
Input line: Hello, I need these entries ordered by pIC50, highest reading first. Thanks! Use the labels to give the requested order.
Output line: I, II, V, IV, III
(I: 9.00, II: 8.70, V: 8.40, IV: 8.05, III: 6.84)

* * *

Target: full length MPS1 (Homo sapiens (Human))
Assay: Measurement of inhibition of MPS1 kinase (Caliper EZ reader, fluorescent labelled peptide H236)
Type: biochemical
Conditions: full length MPS1 12.5 nM or 3 nM, peptide H236 5 μM, ATP 10 μM, 60 min at room temperature
pIC50: −log10 of the molar value.
quantity: pIC50

molecule	quantity	measured-value
COc1cc(-c2cnc(C)n2C)ccc1Nc1cc2cc(-c3cnn(CC4COC4)c3)ccc2cn1	pIC50	8.30

[1] COc1cc(-c2cnc(C)n2C)ccc1Nc1cc2cc(-c3cncs3)ccc2cn1
[2] COCC(O)Cn1cc(-c2ccc3cnc(Nc4ccc(C(=O)N5CC(OC)C5)cc4OC)cc3c2)cn1 (racemic)
[3] COc1cc(-c2cnc(C)n2C)ccc1Nc1cc2cc(-c3cn(C)nc3C)ccc2cn1
[4] COCC1CN(C(=O)c2ccc(Nc3cc4cc(-c5cnn(CC(C)(C)O)c5)ccc4cn3)c(OC)c2)C1
Input line: Hello, I need these entries ordered by pIC50, highest reading first. Thanks! Use the labels to give the requested order.
Output line: 1, 4, 2, 3

[I] COc1cc(C(=O)N2CC(OC)C2)ccc1Nc1cc2cc(-c3cnn(CC(O)CO)c3)ccc2cn1 (racemic)
[II] COc1cc(C(=O)N2CC(OC)C2)ccc1Nc1cc2cc(-c3cnn(C4COCC4O)c3)ccc2cn1 (racemic)
Input line: Which shows the larger pIC50 value: I or II ? Give the chosen item's label as your response.
Output line: I
(I: 8.52, II: 8.30)

* * *

Biological target: full length MPS1 (Homo sapiens (Human))
Test: Measurement of inhibition of MPS1 kinase (Caliper EZ reader, fluorescent labelled peptide H236)
Assay type: biochemical
Conditions: full length MPS1 12.5 nM or 3 nM, peptide H236 5 μM, ATP 10 μM, 60 min at room temperature
pIC50: −log10 of the molar value.
quantity: pIC50

Look over these answered cases.
molecule	quantity	measured-value
COc1cc(-c2cnc(C)n2C)ccc1Nc1cc2cc(-c3cnn(C4CCNCC4)c3)ccc2cn1 [Example 113]	pIC50	8.40
COc1cc(C(=O)N2CC(OC)C2)ccc1Nc1cc2cc(-c3cnn(C(C)C(C)(C)O)c3)ccc2cn1 (racemic) [Example 76]	pIC50	8.30
COc1cc(-c2cnc(C)n2C)ccc1Nc1cc2cc(-c3cnn(C(C)C(C)(C)O)c3)ccc2cn1 (racemic) [Example 68]	pIC50	8.22
COc1cc(-c2cnc(C)n2C)ccc1Nc1cc2cc(-c3cnn(CC(C)O)c3)ccc2cn1 (single isomer, unassigned) [Example 98]	pIC50	8.52

[1] COc1cc(-c2cnn(C)c2)ccc1Nc1cc2cc(-c3cnn(CC(C)(C)O)c3)ccc2cn1 [Example 52]
[2] COc1cc(-c2cnc(C)n2C)ccc1Nc1cc2cc(-c3ccc(N(C)C(=O)OC(C)(C)C)nc3)ccc2cn1 [Example 12]
Input line: Which shows the larger pIC50 value: 1 or 2 ? Give the chosen item's label as your response.
Output line: 1
(1: 8.40, 2: 6.15)

* * *

Molecular target: full length MPS1 (Homo sapiens (Human))
Test: Measurement of inhibition of MPS1 kinase (Caliper EZ reader, fluorescent labelled peptide H236)
Type: biochemical
Conditions: full length MPS1 12.5 nM or 3 nM, peptide H236 5 μM, ATP 10 μM, 60 min at room temperature
pIC50: −log10 of the molar value.
quantity: pIC50

Look over these answered cases.
molecule	quantity	measured-value
COc1cc(-c2cnc(C)n2C)ccc1Nc1cc2cc(-c3cnn(CC4COC(C)(C)O4)c3)ccc2cn1 (racemic) [Example 40]	pIC50	8.22
COc1cc(-c2cnc(C)n2C)ccc1Nc1cc2cc(-c3cncc(C)c3)ccc2cn1 [Example 26]	pIC50	8.00
COc1cc(C(=O)N2CC(OC)C2)ccc1Nc1cc2cc(-c3cnn(CC(O)C(C)C)c3)ccc2cn1 (racemic) [Example 73]	pIC50	8.40

[I] COC1CN(C(=O)c2ccc(Nc3cc4cc(-c5cnn(CC(C)(C)O)c5)ccc4cn3)c(OC(F)F)c2)C1 [Example 91]
[II] COc1cc(-c2cnn(C)c2)ccc1Nc1cc2nc(-c3cnn(C)c3)ccc2cn1 [Example 100]
Input line: Which shows the larger pIC50 value: I or II ? Give the chosen item's label as your response.
Output line: I

* * *

Molecular target: full length MPS1 (Homo sapiens (Human), UniProt P33981)
Test: Measurement of inhibition of MPS1 kinase (Caliper EZ reader, fluorescent labelled peptide H236)
Assay type: biochemical
Conditions: full length MPS1 12.5 nM or 3 nM, peptide H236 5 μM, ATP 10 μM, 60 min at room temperature
quantity: IC50 (nM)

compound	IC50, nM
COc1cc(C(=O)N2CCS(=O)(=O)CC2)ccc1Nc1cc2cc(-c3cnn(CC(C)(C)O)c3)ccc2cn1 [Example 65]	2

[I] COc1cc(C(=O)N2CCN(C)CC2)ccc1Nc1cc2cc(-c3cnn(CC(C)(C)O)c3)ccc2cn1 [Example 66]
[II] COc1cc(-c2cnc(C)n2C)ccc1Nc1cc2cc(-c3cccnc3)ccc2cn1 [Example 16]
[III] COc1cc(F)ccc1Nc1cc2cc(-c3cnn(CC(C)(C)O)c3)ccc2cn1 [Example 54]
Input line: Please list these in order of increasing IC50. Thank you! Use the labels to give the requested order.
Output line: I, II, III
(I: 2 nM, II: 3 nM, III: 65 nM)

* * *

Molecular target: full length MPS1 (Homo sapiens (Human), UniProt P33981)
Experiment: Measurement of inhibition of MPS1 kinase (Caliper EZ reader, fluorescent labelled peptide H236)
Type: biochemical
Settings: full length MPS1 12.5 nM or 3 nM, peptide H236 5 μM, ATP 10 μM, 60 min at room temperature
quantity: IC50 (nM)

Look over these answered cases.
compound	measured-value
COc1cc(-c2cnc(C)n2C)ccc1Nc1cc2cc(-c3cnn(CC4(O)CCC4)c3)ccc2cn1	3
COCCn1cc(-c2ccc3cnc(Nc4ccc(-c5cnc(C)n5CCOC)cc4OC)cc3c2)cn1	2
COc1cc(C(=O)N2CC(OC)C2)ccc1Nc1cc2cc(-c3cn(CC(C)(C)O)nn3)ccc2cn1	2

[A] COCCn1c(-c2ccc(Nc3cc4cc(-c5cnn(CC(C)(C)O)c5)ccc4cn3)c(OC)c2)cnc1C
[B] COc1cc(C#N)ccc1Nc1cc2cc(-c3cnn(CC(C)(C)O)c3)ccc2cn1
[C] CCOc1cc(-c2nncn2C)ccc1Nc1cc2cc(-c3cnn(CC(C)(C)O)c3)ccc2cn1
Input line: Hello, I need these entries ordered by IC50, highest reading first. Thanks! Use the labels to give the requested order.
Output line: B, A, C
(B: 11 nM, A: 3 nM, C: 2 nM)

[I] COc1cc(-c2cnc(C)n2C)ccc1Nc1cc2cc(-c3cnn(CC4CCC4)c3)ccc2cn1
[II] COc1cc(-c2ncnn2C)ccc1Nc1cc2cc(-c3cnn(CC(C)(C)O)c3)ccc2cn1
[III] CNC(=O)c1ccc2cnc(Nc3ccc(-c4cnc(C)n4C)cc3OC)cc2c1
[IV] COc1cc(-c2cnc(C)n2C)ccc1Nc1cc2cc(-c3ccc(N(C)C)nc3)ccc2cn1
[V] CCOc1cc(C(=O)N2CC(OC)C2)ccc1Nc1cc2cc(-c3cnn(CC(C)(C)O)c3)ccc2cn1
Input line: Hello, I need these entries ordered by IC50, highest reading first. Thanks! Use the labels to give the requested order.
Output line: IV, III, I, V, II
(IV: 108 nM, III: 5 nM, I: 3 nM, V: 2 nM, II: 1 nM)

[P] COc1cc(-c2cnc(C#N)n2C)ccc1Nc1cc2cc(-c3cnn(CC(C)(C)O)c3)ccc2cn1
[Q] COc1cc(C(=O)N2CC(OC)C2)ccc1Nc1cc2cc(-c3cnn(C4CCCCC4O)c3)ccc2cn1 (racemic)
Input line: Which shows the larger IC50 value: P or Q ? Give the chosen item's label as your response.
Output line: Q
(Q: 15 nM, P: 5 nM)

[P] COc1cc(-c2nnc3n2CCNC3)ccc1Nc1cc2cc(-c3cnn(CC(C)(C)O)c3)ccc2cn1
[Q] COc1cc(-c2cnc(C)n2C)ccc1Nc1cc2cc(-c3sc(C)nc3C)ccc2cn1
Input line: Which shows the larger IC50 value: P or Q ? Give the chosen item's label as your response.
Output line: Q
(Q: 97 nM, P: 2 nM)
